Provenance of the data: PubChem BioAssay AID1159580

Assay: chemical genetic growth profiling, strain panel (AID 1159580);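 further: tested at 20 µM; growth read once vehicle control cultures reached saturation at 30 °C; lower values mean less growth of the strain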
Details: S. cerevisiae deletion strains, growth OD, locus YNL322C, strain KRE1 (second series), stronger effect = lower value
Hit rate of the full screen: of about 5,500 compounds, about 2,000 (36%) were called active. Roughly 18% stayed inconclusive and do not appear here. The list shows a part of the results.
Threshold 1. normalized growth below it: Fulfilled. normalized growth at it or above: Not fulfilled.

Record CCC1OC(=O)[C@H](C)C(=O)[C@H](C)[C@@H](OC2O[C@H](C)C[C@H](N(C)C)[C@H]2O)[C@](C)(OC)C2(CCCn3cnc(-c4cccnc4)c3)C[C@@H](C)C(=O)[C@H](C)[C@H]3N(C2)C(=O)O[C@]13C (stereo partly drawn) : is its normalized growth strictly below 1?
Fulfilled

Record CC(C)(C)NCC(O)c1cc(O)cc(O)c1 (stereo not drawn) : is its normalized growth strictly below 1?
Fulfilled

Record C[C@]12CCC3c4ccc(O)cc4CCC3C1CC[C@@H]2O (stereo partly drawn) : is its normalized growth strictly below 1?
Not fulfilled

Record CN[C@@H]1[C@@H](O)C(OC2[C@@H](N)C[C@@H](N)[C@H](O[C@H]3O[C@H](C(C)O)[C@@H](O)[C@H](O)[C@H]3N)[C@H]2O)OC[C@]1(C)O (stereo partly drawn) : is its normalized growth strictly below 1?
Fulfilled
